Taken from paper PMC3171603.

Assay: Cytotoxicity: growth inhibition of uninfected TZM-bl cells
Format: cell-based
Details: human
CC50 values by entry

| compound | inequality.operator | CC50 [µM] |
| --- | --- | --- |
| CCc1cc(=O)c2ccc3c(c2o1)[C@@H](OC(=O)C12CCC(C)(C(=O)O1)C2(C)C)[C@@H](OC(=O)C12CCC(C)(C(=O)O1)C2(C)C)C(C)(C)O3 (some centres unmarked) [Compound 2-Ethyl-DCP, 2-ethyl-DCP, reference compound] | = | 14.3 |
| Cc1cc(=O)oc2c3c(ccc12)SC(C)(C)[C@H](OC(=O)[C@@]12CC[C@@](C)(C(=O)O1)C2(C)C)[C@@H]3OC(=O)[C@@]12CC[C@@](C)(C(=O)O1)C2(C)C | > | 30.6 |
